Attribution: ChEMBL document CHEMBL3856195

Study System: Genome polyprotein (Coxsackievirus B3 (strain Nancy), UniProt P03313)
Sequence (P03313 1541-1723 limits assumed): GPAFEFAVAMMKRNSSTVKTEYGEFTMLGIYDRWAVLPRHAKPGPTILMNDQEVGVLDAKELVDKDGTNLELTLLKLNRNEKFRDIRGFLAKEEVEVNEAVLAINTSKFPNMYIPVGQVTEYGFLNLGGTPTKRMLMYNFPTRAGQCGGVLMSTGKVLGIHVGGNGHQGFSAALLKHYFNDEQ
Assay Procedure: Inhibition of recombinant Coxsackievirus B3 3C protease expressed in Escherichia coli BL21 (DE3) preincubated for 5 mins followed by addition of NMA-EALFQGPPVK-DNP-rrr-NH2 as substrate measured up to 2 hrs by FRET-based enzyme assay
Endpoint: IC50 (nM)
Record the value in nM, omitting the unit from your answer.

// query State its IC50 on Genome polyprotein (Coxsackievirus B3 (strain Nancy), UniProt P03313): `O=C(CCCCc1ccccc1)N/N=C/c1ccc(O)c(O)c1O`
// result 440

***
// query # get_value(readout= IC50, system= Genome polyprotein (Coxsackievirus B3 (strain Nancy), UniProt P03313)) for `Cc1cc(C(=O)N[C@H](C(=O)N[C@@H](Cc2ccc(F)cc2)C(=O)NNCc2ccc(O)c(O)c2O)C(C)C)no1`
// result 230

// query Find the measured IC50: item `O=C(CCc1ccc(F)cc1)NNCc1ccc(O)c(O)c1O` , target or system Genome polyprotein (Coxsackievirus B3 (strain Nancy), UniProt P03313).
// result 200

// query Query the reported IC50 for Genome polyprotein (Coxsackievirus B3 (strain Nancy), UniProt P03313); item: `O=C(CCc1ccc(F)cc1)N/N=C/c1ccc(O)c(O)c1O`
// result 580
